system: Vibrio cholerae; assay: Inhibition of biofilm formation of Vibrio cholerae incubated for 4.5 hrs by epifluorescence based assay; type: functional, organism-based
recordedMetric: IC50 (µM)
Give a bare numeral; the unit µM is implied.

Query string: Consider the compound shown here: C=C1Oc2cc(OC)cc(C(=O)OC)c2NC1=O What is its recorded IC50?
Result string: 60.1
